pIC50: −log10 of the molar value.
Dear all, this message contains pIC50 results, target or system PP1α (PP1CA) (Oryctolagus cuniculus).

Examples from the recorded data:
- COc1ccc(-c2[nH]c(=O)c3cc(OC)ccc3c2C=O)cc1 [Compound 25]: ≤ 4.30
- COc1ccc(-c2nc(OC)c3cc(OC)ccc3c2[N+](=O)[O-])cc1 [Compound 19]: 4.30 to 4.60
- COc1ccc(-c2c([N+](=O)[O-])c3ccc(OC)cc3c(=O)n2CC#N)cc1 [Compound 30]: ≤ 4.30
- O=c1[nH]c(-c2ccc(O)cc2)c(Cl)c2ccc(O)cc12 [Compound 56]: 4.62 to 5.00

--- query ---
Recorded pIC50 (molecule COc1ccc(-c2[nH]c(=O)c3cc(OC)ccc3c2N)cc1 [Compound 1] ): < 4.30

Source: patent US8883763B2
